Measurement Description: protection of differentiated C2C12 cells from simvastatin – single point, plate reader, primary screen (AID 602340);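 also: myotubes were challenged with 10 µM simvastatin during compound exposure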
Experimental Context: C2C12 myotubes + simvastatin, ATP luminescence, 48 h; at 7.49 µM; active compounds read high; scaled: DMSO 0, geranylgeraniol control 100
Among all 330,000 compounds or so, about 2,600 (0.79%) were called active. The sample holds actives, similar compounds and a random draw of the others, so the mix is not that of the screen.
Experimental Readout: rescue of ATP level (%)
The response must be a number in % with no trailing unit.

The value of rescue of ATP level measured for the molecule CC(=O)N1[C@@H]2c3ccc(-c4ccccc4)c(=O)n3C[C@@H]2[C@@H](CO)[C@@H]1C(=O)NCc1ccccc1F turned out to be 5.23

The value of rescue of ATP level measured for the molecule CCN(CC)Cc1csc2ccc(Br)cc12 turned out to be 100

The value of rescue of ATP level measured for the molecule C[C@H]1CN([C@@H](C)CO)C(=O)c2c(c3ccccc3n2C)-c2ccccc2CO[C@H]1CN(C)C(=O)Nc1ccc(F)cc1 turned out to be 19.1

The value of rescue of ATP level measured for the molecule CCCNC(=O)N1[C@@H]2CN(C)c3ccccc3[C@@H]2[C@@H]1CO turned out to be 9.21

The value of rescue of ATP level measured for the molecule CCC(=O)Nc1ccccc1N1CCN(S(C)(=O)=O)CC1 turned out to be 5.38

---

Measurement Description: protection of differentiated C2C12 cells from simvastatin – single point, plate reader, primary screen (AID 602340);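 also: myotubes were challenged with 10 µM simvastatin during compound exposure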
Experimental Context: C2C12 myotubes + simvastatin, ATP luminescence, 48 h; at 7.49 µM; active compounds read high; scaled: DMSO 0, geranylgeraniol control 100
Hit rate of the full screen: of about 330,000 compounds, about 2,600 (0.79%) were called active. What follows is part of a selection rich in actives, with near analogues and random picks from the rest.
Experimental Readout: rescue of ATP level

The value of rescue of ATP level measured for the molecule CC=CCn1c(SCCCc2ccccc2)nc2c1c(=O)[nH]c(=O)n2C turned out to be 1.54% (inactive)

The value of rescue of ATP level measured for the molecule Cn1c(=O)[nH]c(=O)c2c1nc(N1CCN(C(c3ccccc3)c3ccccc3)CC1)n2CCO turned out to be 41.4% (inactive)

The value of rescue of ATP level measured for the molecule CC1CCN(c2nc3c(c(=O)[nH]c(=O)n3C)n2CCCc2ccccc2)CC1 turned out to be 144% (active)

The value of rescue of ATP level measured for the molecule CCOC(=O)c1c(-c2ccccc2)oc2ccc(OCC(N)=O)cc12 turned out to be -0.453% (inactive)

The value of rescue of ATP level measured for the molecule O=C(C[C@@H]1C[C@H]2c3cc(NC(=O)Nc4ccccc4)ccc3O[C@H]2[C@@H](CO)O1)NC1CCCCC1 turned out to be 4.79% (inactive)

---

Measurement Description: protection of differentiated C2C12 cells from simvastatin – single point, plate reader, primary screen (AID 602340);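 also: myotubes were challenged with 10 µM simvastatin during compound exposure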
Experimental Context: C2C12 myotubes + simvastatin, ATP luminescence, 48 h; at 7.49 µM; active compounds read high; scaled: DMSO 0, geranylgeraniol control 100
Hit rate of the full screen: of about 330,000 compounds, about 2,600 (0.79%) were called active. The entries come from a sample that favours actives as a whole.
Exercise: for every item that follows, state its recorded rescue of ATP level.
The response must be a number in % with no trailing unit.

The value of rescue of ATP level measured for the molecule COc1ccc(-c2cc(C(=O)n3cnc4ccccc43)c3ccccc3n2)cc1 turned out to be 87.1

The value of rescue of ATP level measured for the molecule Cc1cc(C)c2c(-n3cccc3)c(C(=O)NNS(=O)(=O)c3ccc(F)cc3)sc2n1 turned out to be 7.07

The value of rescue of ATP level measured for the molecule COc1ccc2ccccc2c1CNCc1ccccn1 turned out to be 88.1

The value of rescue of ATP level measured for the molecule CC(=O)N1CCN(c2ccccc2NC(=S)NC(=O)c2cc3ccccc3o2)CC1 turned out to be 12.9

The value of rescue of ATP level measured for the molecule CCn1nnnc1SCC(=O)Nc1ccc(N(C)C)cc1 turned out to be -19

The value of rescue of ATP level measured for the molecule CO[C@@H]1CN(C)C(=O)c2ccc(NC(=O)C3CC3)cc2OC[C@@H](C)N(Cc2ccncc2)C[C@@H]1C turned out to be 6.35

The value of rescue of ATP level measured for the molecule COc1ccc(NC(=O)c2cc(-c3cc(OC)c(OC)c(OC)c3)nc3ccccc23)c(OC)c1 turned out to be -9.57

The value of rescue of ATP level measured for the molecule CC(=O)c1ccc(NC(=O)c2cc(-c3cccs3)on2)cc1 turned out to be -12.8

The value of rescue of ATP level measured for the molecule COc1ccc(NC(=O)Nc2cccc3c2O[C@H](CN(C)C(=O)Nc2cccc4ccccc24)[C@H](C)CN([C@H](C)CO)C3=O)cc1 turned out to be 60

The value of rescue of ATP level measured for the molecule COc1ccc(NCCc2ccccn2)cc1 turned out to be -1.75

The value of rescue of ATP level measured for the molecule COc1ccc(CN(C)C[C@H]2OCc3cn(nn3)CCCC(=O)N([C@@H](C)CO)C[C@@H]2C)cc1 turned out to be 11.6

The value of rescue of ATP level measured for the molecule CCn1nnnc1SCC(=O)c1ccc(C)cc1C turned out to be 122

The value of rescue of ATP level measured for the molecule CCCNC(=O)N(C)C[C@@H]1Oc2ncc(-c3ccccc3F)cc2C(=O)N([C@@H](C)CO)C[C@H]1C turned out to be 15.3

The value of rescue of ATP level measured for the molecule COc1ccccc1C(=O)NC(=S)Nc1ccccc1N1CCCCC1 turned out to be 0.351

The value of rescue of ATP level measured for the molecule CN1C(=O)c2cc(NS(=O)(=O)c3ccc(F)cc3)ccc2OC[C@@H]2O[C@@H](CC(=O)O)CC[C@H]21 turned out to be 1.01

The value of rescue of ATP level measured for the molecule CCCNC(=O)N1C[C@H]2[C@@H](c3ccccc31)[C@H](CO)N2C(=O)NC(C)C turned out to be -5.25

The value of rescue of ATP level measured for the molecule COC(=O)Nc1sc2nc(C)cc(C)c2c1-n1cccc1 turned out to be -7.59

The value of rescue of ATP level measured for the molecule CCOC(=O)c1c(-c2ccc(C)cc2C)csc1NC(=O)CSc1nnnn1C turned out to be 8.4

The value of rescue of ATP level measured for the molecule O=C(C[C@H]1C=C[C@@H](NC(=O)C2CCOCC2)[C@@H](CO)O1)NCC1CCCCC1 turned out to be -2.92

The value of rescue of ATP level measured for the molecule Cc1cc(NC(=O)c2cc(-c3cccs3)on2)nn1Cc1ccc(Cl)cc1 turned out to be 143

---

Measurement Description: protection of differentiated C2C12 cells from simvastatin – single point, plate reader, primary screen (AID 602340);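 also: myotubes were challenged with 10 µM simvastatin during compound exposure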
Experimental Context: C2C12 myotubes + simvastatin, ATP luminescence, 48 h; at 7.49 µM; active compounds read high; scaled: DMSO 0, geranylgeraniol control 100
Among all 330,000 compounds or so, about 2,600 (0.79%) were called active. Many of the other results were omitted from the sample, so actives are more common in it than they were.
Experimental Readout: rescue of ATP level (%)
The response must be a number in % with no trailing unit.

The value of rescue of ATP level measured for the molecule CNC[C@H]1Oc2cc(-c3cccnc3)ccc2S(=O)(=O)N([C@@H](C)CO)C[C@H]1C turned out to be -14.4

The value of rescue of ATP level measured for the molecule CCCN(C)C[C@@H]1Oc2ncc(C#CC3CC3)cc2C(=O)N([C@H](C)CO)C[C@H]1C turned out to be 8.64

The value of rescue of ATP level measured for the molecule C[C@H]1CN([C@@H](C)CO)C(=O)Cc2cc(NC(=O)CCCCCC(=O)Nc3ccccc3N)ccc2O[C@@H]1CN(C)Cc1ccncc1 turned out to be 20.5

The value of rescue of ATP level measured for the molecule C[C@H]1CN([C@@H](C)CO)C(=O)Cc2cc(NC(=O)Cn3cnnn3)ccc2O[C@H]1CN(C)Cc1ccc(C(=O)O)cc1 turned out to be -21.6

The value of rescue of ATP level measured for the molecule COc1ccc2[nH]c(=O)c(CN(Cc3cccnc3)S(=O)(=O)c3ccccc3F)cc2c1 turned out to be -38.6

The value of rescue of ATP level measured for the molecule CNC(=S)N/N=C/c1ccc(OCc2ccccc2)c(Br)c1 turned out to be 10.8

The value of rescue of ATP level measured for the molecule COc1ccc(/C(O)=C2/C(=O)C(=O)N(CCCN(C)C)C2c2ccccc2)cc1OC (configuration not stated) turned out to be 14.8
